FYI, the data here is from PubChem BioAssay (NCI).

// TGI lookup, one value per entry
System: HL-60(TB) leukemia
Assay: NCI tumour cell line growth inhibition, 48 h

Answered cases to consult:
INSERT INTO results (compound, measured_metric, result) VALUES
  ('CC(C)C(=O)Nc1nc2c(ncn2C2OC(CO)C(O)C2O)c(=O)[nH]1 (stereo unspecified)', 'TGI', '> 100 µM'),
  ('Cn1c(=O)oc2cc(C(O)CN3CCN(Cc4ccccn4)CC3)c(Cl)cc21 (stereo unspecified)', 'TGI', '> 100 µM'),
  ('Cc1c(/C=N/NC(=O)c2ccc(Cl)cc2)c(=O)n(-c2ccccc2)n1C', 'TGI', '> 100 µM'),
  ('COc1c(OC(C)=O)c(OC(C)=O)cc2c1-c1ccc(SC)c(=O)cc1C(NC(C)=O)CC2 (stereo unspecified)', 'TGI', '0.61 µM'),
  ('COc1cc2c(OC)cc1CSCc1sc(C)c(c1Br)CSC2', 'TGI', '> 100 µM'),
  ('CCOC(=O)C1(C/C=C/CBr)CCc2ccccc2C1=O (stereo unspecified)', 'TGI', '> 100 µM'),
  ('Cn1cc(C2=C(c3cccc(Br)c3)C(=O)NC2=O)c2ccccc21', 'TGI', '> 25 µM'),
  ('Cc1ccc(-c2n[nH]c(=O)n2/N=C\c2ccc([N+](=O)[O-])cc2)cc1', 'TGI', '97.6 µM');

Query: Please list TGI recorded for the compound NC(=O)OCCn1cc(-c2nc(-c3c[nH]c4ncccc34)cs2)c2ccccc21
Reply: 5.45 µM

Query: Please list TGI recorded for the compound CCN(Cc1ccccc1C)c1ccc(CO)c(Cl)c1
Reply: 34.4 µM

Query: Please list TGI recorded for the compound O=C(c1ccccc1)c1c(-c2ccccc2)n(-c2ccccc2)[nH]c(=O)c1=O
Reply: 85 µM

Query: Please list TGI recorded for the compound O=C1NC(=NCCc2cccc(Cl)c2)S/C1=C\c1ccc2ncccc2c1
Reply: > 25 µM

Query: Please list TGI recorded for the compound O=C1OCC2C1C1c3ccccc3C(O)c3ccccc3C21 (stereo unspecified)
Reply: > 100 µM

Query: Please list TGI recorded for the compound Cc1cc(C)c2c(c1)C/C(=C\c1ccccc1C(=O)O)C2=O
Reply: > 100 µM

Query: Please list TGI recorded for the compound CNS(=O)(=O)NNS(=O)(=O)c1ccc(Br)cc1
Reply: > 100 µM

Query: Please list TGI recorded for the compound O=C1c2cccc3cccc(c23)C2NCCCN12 (stereo unspecified)
Reply: > 100 µM

---

Test system: SN12C renal
Experiment: NCI tumour cell line growth inhibition, 48 h
Note to self: values exactly at 40 µM are t. So TGI at or above 40 µM is t, below is f.

These solved cases illustrate the format of a correct answer.
INSERT INTO results (compound, class_label) VALUES
  ('O=C(O)c1nc2ccc(C(F)(F)F)cc2nc1NCc1ccc(F)cc1', 'f'),
  ('O=C(/N=C/c1c(O)c2ccccc2oc1=O)Oc1ccccc1', 't'),
  ('Cc1cc(NS(=O)(=O)c2ccc(Nc3c4ccccc4nc4c(C(=O)N5CCN(CCO)CC5)ccc(Cl)c34)cc2)no1', 't'),
  ('COc1ccc(-n2c(C)cc(-c3ccccc3)c2C)cc1', 't'),
  ('Cc1ccc(C)c(N=C2NC(=O)C(CC(=O)Nc3ccc(Cl)cc3Cl)S2)c1 (centres undefined)', 't'),
  ('COC(=O)C1=C(C(=O)Nc2cccnc2Cl)N(c2ccc(OC)cc2[N+](=O)[O-])C(c2ccc(C)cc2)=CC1c1ccc(OC)cc1OC (centres undefined)', 'f');

Query: TGI >= 40 µM for CC1C[C@]2(C)C(=NCCN)Nc3ccccc3[C@@H]2N(C)c2ccccc21 (some centres undefined) ?
Reply: f

Query: TGI >= 40 µM for C1=C\COCc2cc(ccc2OCCN2CCCC2)Nc2nccc(n2)-c2cccc(c2)COC/1 ?
Reply: f

Query: TGI >= 40 µM for CC(O)CCCCC(O)CCC[C@H](O)[C@H]1CCC([C@H]2CCC([C@@H](O)CCCCCCCCCCCCC3=C[C@H](C)OC3=O)O2)O1 (some centres undefined) ?
Reply: f

---

Tested on: SW-620 colon
Test: NCI tumour cell line growth inhibition, 48 h
// TGI lookup, one value per entry

Answered cases to consult:
INSERT INTO measurements (molecule, result) VALUES
  ('O=S(=O)(c1ccccc1)C1CN2OC1(S(=O)(=O)c1ccccc1)CC2c1ccc(Br)cc1 (stereo unspecified)', '> 100 µM'),
  ('CN1C(=O)CSC1=S', '> 100 µM'),
  ('CN(C)c1ccc(/C=N\NC(=O)Nc2cccc3ccccc23)cc1', '> 100 µM'),
  ('Ic1cccc(/C=C/CN2CCN(CCOC(c3ccccc3)c3ccccc3)CC2)c1', '> 100 µM'),
  ('Cc1ccccc1N/C(=C(/C(Cl)=C(Cl)Cl)[N+](=O)[O-])n1nnc2ccccc21', '29.4 µM');

Query: Please list TGI recorded for the molecule CN(C)CCNC(=O)c1ccc2nc3c(nc2c1)C(=O)c1ccccc1-3
Reply: > 100 µM

---

System: SW-620 colon
Assay: NCI tumour cell line growth inhibition, 48 h
MEASURED_METRIC: TGI

Answered cases to consult:
INSERT INTO assay_data (compound, measured_metric, result) VALUES
  ('c1ccc2nc3c(nc2c1)sc1ccccc13', 'TGI', '> 100 µM'),
  ('S=C1SSC2N=CC=CC12 (stereo unspecified)', 'TGI', '> 100 µM');

Query: Please list TGI recorded for the compound CC(C)C(=O)NS(=O)(=O)c1ccccc1
Reply: > 100 µM

Query: Please list TGI recorded for the compound CC(=O)N(CCc1ccccc1)C(C#N)c1ccccc1 (stereo unspecified)
Reply: > 100 µM

Query: Please list TGI recorded for the compound COC1=CC2C(c3cc4ccccc4n3S(=O)(=O)c3ccccc3)CC1CN2C(=O)OCc1ccccc1 (stereo unspecified)
Reply: > 100 µM

Query: Please list TGI recorded for the compound CN(C)CC1CCC/C(=C\c2ccc(Cl)cc2)C1=O (stereo unspecified)
Reply: 4.08 µM

Query: Please list TGI recorded for the compound CNC(=S)N=Nc1c(O)n(CN2CCOCC2)c2ccc([N+](=O)[O-])cc12
Reply: > 100 µM

---

System: IGROV1 ovarian
Test: NCI tumour cell line growth inhibition, 48 h
MEASURED_METRIC: TGI (µM)
Response body: numeric value in µM, unit text excluded.

INSERT INTO results (smiles_notation, experimental_target, measured_metric, units, recorded_number) VALUES
  ('CCOC(=O)CO/N=C1/C(c2c(O)[nH]c3ccccc23)=Nc2ccccc21', 'IGROV1 ovarian', 'TGI', 'µM', 79.2),
  ('O=[N+]([O-])/C(C(Cl)=C(Cl)Cl)=C(/Nc1ccccc1)SCc1ccccc1', 'IGROV1 ovarian', 'TGI', 'µM', 39.9);

From here, focus on the item given below.
Query: Please list TGI recorded for the compound c1ccc2nc3c(nc2c1)sc1ccccc13
Reply: 51

---

// TGI lookup, one value per entry
Test system: SK-MEL-28 melanoma
Experiment: NCI tumour cell line growth inhibition, 48 h

INSERT INTO measurements (molecule, result) VALUES
  ('CC1COC(C)(C)P(=O)(c2ccccc2)C1 (stereo unspecified)', '> 100 µM'),
  ('CCOP(=O)(OCC)OC1C=CC2CCC1C2 (stereo unspecified)', '> 100 µM'),
  ('CCN1C(=O)N(CC)C2C1NN=c1s/c(=C3\C(=O)N(CC(C)(C)C)c4ccccc43)c(=O)n12 (stereo unspecified)', '22 µM'),
  ('Cc1ccc(C)c(N=C2NC(=O)C(CC(=O)Nc3ccc(Cl)cc3Cl)S2)c1 (stereo unspecified)', '> 100 µM'),
  ('O=C1C=CC(=O)c2c1ccc1c3ccccc3n(-c3cccc([N+](=O)[O-])c3)c21', '> 6.36 µM');

From here, focus on the item given below.
Query: Please list TGI recorded for the molecule CC(C)N(CCn1c2c3ccccc3ccc2c2oc(=O)c3ccccc3c21)C(C)C
Reply: > 100 µM

---

System: MCF7 breast
Assay: NCI tumour cell line growth inhibition, 48 h
// GI50 lookup, one value per entry

INSERT INTO results (smiles_notation, result) VALUES
  ('O[C@H](c1cc(C(F)(F)F)nc2c(C(F)(F)F)cccc12)[C@@H]1CCCCN1', '2.46 µM'),
  ('Cc1cc(C)c(/C=C2\C(=O)Nc3ccc(NC(=O)CCCCCCC(=O)NO)cc32)[nH]1', '0.529 µM');

Query: Please list GI50 recorded for the molecule CCn1c(=O)c2c(=O)c3c4c(oc3oc2c2ccccc21)C(=O)c1ccccc1C4=O
Reply: > 100 µM

Query: Please list GI50 recorded for the molecule O=C(Nc1ccc(-n2ccc3c(NC(=O)c4ccccc4)nccc32)cc1)Nc1ccc(Cl)c(Cl)c1
Reply: 1.1 µM

Query: Please list GI50 recorded for the molecule Cc1cc(C)c(NC(=O)c2sc3nc4c(cc3c2N)CN(Cc2ccccc2)CC4)c(C)c1
Reply: 1.61 µM
